# system.name: human GPR119 (Homo sapiens, UniProt Q8TDV5)
# Sequence (Q8TDV5 whole entry): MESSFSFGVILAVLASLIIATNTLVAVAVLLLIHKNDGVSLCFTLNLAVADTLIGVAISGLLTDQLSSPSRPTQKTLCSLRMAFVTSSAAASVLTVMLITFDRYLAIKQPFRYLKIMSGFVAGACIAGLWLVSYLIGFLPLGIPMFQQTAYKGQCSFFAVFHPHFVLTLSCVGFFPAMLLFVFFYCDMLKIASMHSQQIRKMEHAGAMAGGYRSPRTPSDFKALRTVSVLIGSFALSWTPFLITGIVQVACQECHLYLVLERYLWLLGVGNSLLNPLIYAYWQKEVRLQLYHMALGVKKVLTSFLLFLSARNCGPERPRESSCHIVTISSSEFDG
# experimental.details: Cyclic AMP assay in stable cell line
# reported.conditions: CHO-K1 cells stably transfected with human GPR119; cAMP levels (FRET, cAMP femto kit); 1 h at 37° C; read-out: EC50 Range
pEC50: −log10 of the molar value.
value.kind: pEC50

>>> result("CCOC(=O)Nc1ccc2c(ccn2-c2ccc(OC3CCN(c4ncc(CC)cn4)CC3)cn2)c1")
"> 7.30"
>>> result("CCc1cnc(N2CCC(Oc3ccc(-n4ccc5cc(C(=O)NCCO)ccc54)nc3)CC2)nc1")
"> 7.30"
>>> result("CCc1cnc(N2CCC(Oc3ccc(-n4ccc5cc(C(=O)N6CCCC6)ccc54)nc3)CC2)nc1")
"> 7.30"
>>> result("CCc1cnc(N2CCC(Oc3ccc(-n4ccc5cc(NC(=O)C(C)(C)C)ccc54)nc3)CC2)nc1")
"> 7.30"
>>> result("CCc1cnc(N2CCC(COc3ccc(-n4ccc5cc(S(C)(=O)=O)ccc54)nc3)CC2)nc1")
"> 7.30"
>>> result("CCc1cnc(N2CCC(Oc3ccc(-n4ccc5cc(-n6cncn6)ccc54)nc3)CC2)nc1")
"> 7.30"
>>> result("CCc1cnc(N2CCC(Oc3ccc(-n4ccc5cc(C(=O)NC6CC6)ccc54)nc3)CC2)nc1")
"> 7.30"
>>> result("CCOC(=O)N1CCC(OCc2ccc(-n3ccc4cc(S(C)(=O)=O)ccc43)nc2)CC1")
"6.00 to 6.60"
>>> result("CC(C)c1noc(N2CCC(Oc3ccc(-n4ccc5cc(S(C)(=O)=O)ccc54)nc3)CC2)n1")
"> 7.30"
>>> result("CC(C)NC(=O)c1ccc2c(ccn2-c2ccc(OC3CCN(C(=O)OC(C)(C)C)CC3)cn2)c1")
"6.60 to 7.30"
>>> result("CCOC(=O)N1CCC(Oc2ccc(-n3ccc4cc(-n5cncn5)ccc43)nc2)CC1")
"6.00 to 6.60"
>>> result("CCOC(=O)N1CCC(Oc2ccc(-n3ccc4cc(S(C)(=O)=O)ccc43)nc2)CC1")
"6.60 to 7.30"
>>> result("CC(C)(C)CN1CCC(Oc2ccc(-n3ccc4cc(S(C)(=O)=O)ccc43)nc2)CC1")
"> 7.30"
>>> result("CS(=O)(=O)c1ccc2c(ccn2-c2ccc(OC3CCN(CC4(C(F)(F)F)CC4)CC3)cn2)c1")
"> 7.30"
>>> result("CC(C)C(=O)Nc1ccc2c(ccn2-c2ccc(OC3CCN(C(=O)C(C)C)CC3)cn2)c1")
"> 7.30"
>>> result("CC(C)c1noc(CN2CCC(Oc3ccc(-n4ccc5cc(C(=O)N(C)C)ccc54)nc3)CC2)n1")
"6.00 to 6.60"
>>> result("CC(C)OC(=O)N1CCC(Oc2ccc(-n3ccc4cc(C(=O)N(C)C)ccc43)nc2)CC1")
"> 7.30"
>>> result("CCc1cnc(N2CCC(Oc3ccc(-n4ccc5cc(OC)cnc54)nc3)CC2)nc1")
"6.60 to 7.30"
>>> result("CC(C)C(=O)Nc1ccc2c(ccn2-c2ccc(OC3CCN(c4nc(C(C)C)no4)CC3)cn2)c1")
"> 7.30"
>>> result("CC(C)OC(=O)N1CCC(Oc2ccc(-n3ccc4cc(C(=O)N5CCCC5)ccc43)nc2)CC1")
"6.60 to 7.30"
>>> result("CS(=O)(=O)c1ccc2c(ccn2-c2ccc(OC3CCN(Cc4ccc(F)cc4)CC3)cn2)c1")
"6.60 to 7.30"
>>> result("CCc1cnc(N2CCC(OCc3ccc(N4CCc5cc(S(C)(=O)=O)ccc54)nc3)CC2)nc1")
"6.00 to 6.60"
>>> result("CCc1noc(N2CCC(Oc3ccc(-n4ccc5cc(C(=O)N(C)C)ccc54)nc3)CC2)n1")
"6.60 to 7.30"
>>> result("CCOC(=O)Nc1ccc2c(ccn2-c2ccc(OC3CCN(c4nc(C(C)C)no4)CC3)cn2)c1")
"> 7.30"
>>> result("CC(C)(C)OC(=O)N1CCC(OCc2ccc(N3CCc4cc(S(C)(=O)=O)ccc43)nc2)CC1")
"> 7.30"
>>> result("CC(C)NC(=O)c1ccc2c(c1)CCN2c1ccc(OC2CCN(C(=O)OC(C)(C)C)CC2)cn1")
"> 7.30"
>>> result("CC(C)(C)OC(=O)N1CCC(COc2ccc(-n3ccc4cc(S(C)(=O)=O)ccc43)nc2)CC1")
"> 7.30"
>>> result("CC(C)OC(=O)N1CCC(Oc2ccc(-n3ccc4cc(S(C)(=O)=O)ccc43)nc2)CC1")
"> 7.30"
>>> result("CCOC(=O)N1CCC(Oc2ccc(-n3ccc4cc(N5CCCC5=O)ccc43)nc2)CC1")
"6.60 to 7.30"
>>> result("CC(C)(F)CN1CCC(Oc2ccc(-n3ccc4cc(S(C)(=O)=O)ccc43)nc2)CC1")
"> 7.30"
>>> result("CC(C)(C)OC(=O)N1CC2COCC(C1)C2Oc1ccc(-n2ccc3cc(S(C)(=O)=O)ccc32)nc1 (stereo not shown) [Example-49]")
"> 7.30"
